- test_system: T1, human OPGbp [143-317] (human, UniProt O14788 143-317)
- T1 construct: also called OPGL
- T1 sequence (looked up): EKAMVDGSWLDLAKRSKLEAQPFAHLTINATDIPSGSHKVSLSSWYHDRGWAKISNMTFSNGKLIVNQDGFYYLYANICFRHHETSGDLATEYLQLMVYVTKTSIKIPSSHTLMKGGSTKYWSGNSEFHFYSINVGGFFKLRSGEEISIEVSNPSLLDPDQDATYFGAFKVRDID
- assay: SPR (BIAcore), immobilized OPGbp [143-317]
observable: kon (M⁻¹ s⁻¹)

binder	observable	value_reported
“AT” antibody variant S96M (heavy chain CDR3) (antibody, name in Kabat numbering, V domains shown, not shown: human IgG1 CH1, hinge, CH2 and CH3) VH: QVQLVQSGAEVRKPGASVKVSCKASGYDFSNYAIHWVRQAPGQRLEWMGWINAGNGNTKFSQKFQGRITVTRDTAASTAYMELRSLRSEDTAVYYCARDMSNMVRGIIIAYYFDYWGQGTLVTVSS VL: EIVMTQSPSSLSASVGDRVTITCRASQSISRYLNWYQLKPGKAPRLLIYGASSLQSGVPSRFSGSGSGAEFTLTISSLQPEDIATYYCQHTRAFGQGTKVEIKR	kon	3.57e+06
